# Test system: NCI-H460
# assay-remarks: Cytotoxicity against human NCI-H460 cells assessed as cellular growth at 10 uM by SRB assay
# Type: functional
measured-quantity: Activity

O=C(NCc1ccc(Cl)cc1)c1[nH]c2ccccc2c1Cl :: 99.81%
Cc1ccc(NC(=O)c2sc3nc(-c4cccs4)ccc3c2N)cc1C :: 98.65%
Cc1ccc(S(=O)(=O)NC2=NC(=O)/C(=C\c3ccccc3)S2)cc1 :: 119.27%
c1ccc(-c2nc(-c3cccs3)no2)cc1 :: 102.91%
O=C(NCCc1ccc(Cl)cc1)c1[nH]c2ccccc2c1Cl :: 93.16%
Clc1ccccc1Nc1nnc(-c2ccncc2)s1 :: 99.69%
Cc1ccc2c(c1)N/C(=C/C(=O)c1ccc(Cl)cc1)C(=O)O2 :: 109.79%
Nc1c(C(=O)Nc2ccccc2)sc2nc3c(cc12)C(=O)CCC3 :: 12.88%
Clc1ccc(-c2nc(-c3cccs3)no2)c(Cl)c1 :: 92.07%
Cc1cccc(-c2nc(-c3cccs3)no2)c1 :: 94.9%

Inquiry: Indicate the recorded Activity value for this compound: `Cc1ccc(C(=O)/C=C2/Nc3ccc(C)cc3OC2=O)cc1`
Reply text: 117.71%

Inquiry: Indicate the recorded Activity value for this compound: `Clc1cccc(-c2nc(-c3cccs3)no2)c1`
Reply text: 97.36%
